experiment_notes: Single-dose maximum tolerated dose (MTD)
Assay type: in vivo
settings: mouse, in vivo, ip, Nu/Nu nude mice
measurement_name: MTD

Give its MTD value. Item: "O=C(CBr)NCCCCc1ccc(C(=O)O)cc1"
300 to 400 mg/kg
